- Tested on: Aurk (Aurora kinase)
- protocol: Inhibition of Aurk in mouse L929sA cells transfected with human Fas assessed as reduction in cell growth at 3 uM after 24 hrs in presence of TNF by Hoechst 33342 staining-based microscopic assay relative to control
attribute-measured: inhibition at 24 h, 3 µM

Observe how each entry below is paired with its result.
{"test-smiles": "Cc1cc(Nc2cc(N3CCN(C)CC3)nc(Nc3ccc(NC(=O)C4CCCCC4)cc3)n2)n[nH]1", "inhibition at 24 h, 3 µM": "< 50%"}
{"test-smiles": "Cc1cc(Nc2nc(Nc3ccc(NC(=O)C4CC4)cc3)nc(N3CCOCC3)n2)n[nH]1", "inhibition at 24 h, 3 µM": "< 50%"}

Okay, now this compound:
The recorded inhibition at 24 h, 3 µM for `Cc1cc(Nc2cc(N3CCOCC3)nc(Nc3ccc(NC(=O)C4CC4)cc3)n2)n[nH]1` is < 50%
